B1: FAM46C (parent)
chain: FDHLQNRLIATKNPEEIRGGGLLK

# Variants of: B1
# ASSAY_PROTOCOL: protein stability index of a GFP-peptide fusion (GPS, HEK-293T) (PSI 1-6); higher = more stable;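 also: lentivirally expressed fusions sorted by FACS into six bins by GFP to DsRed ratio, PSI derived from sequencing read proportions per bin multiplied by bin number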
# CONDITIONS_USED: c terminus: a fixed tail appended
READOUT_TYPE: protein stability index
Give bare numbers.

Record excerpt, results attached:
1) H3C = 3.63
2) I17W = 3.44

// each listed variant needs a value for protein stability index
1. G19W
2. H3F
3. E15G
4. E16D
5. D2E

a:
1. 1.74
2. 2.06
3. 2.99
4. 4.13
5. 4.18
